# Tested on: UACC-257 melanoma
# RUN DESCRIPTION: NCI-60 one-dose screen, 48 h (100 = growth as untreated, 0 = no growth, -100 = all killed)
# CONDITION INFO: 10 µM unless noted
Compounds without any hit were thinned out: in the full panel of roughly 83,000, 20% have a hit. Activity calls are given as the source filed them. The calls were made as follows: active = growth percent below 10; inactive = the rest.
MEASURED ENDPOINT: growth

>>> df
                                   compound  measured_endpoint       assay_value
0  COc1ccc(NC(=O)c2sc3nc(C)c(C(O)c4ccccc4)cc3c2N)cc1 (stereo not given)             growth  64.4% (inactive)
1  O=C(O)C1CN(c2cccc(Cl)c2)N(c2cccc(Cl)c2)C1=O (stereo not given)             growth  99.3% (inactive)
2  O=C1/C(=C/c2ccc(C(F)(F)F)cc2)COc2ccc(O)cc21             growth  98.1% (inactive)
3  CCCCn1sc(=O)n(Cc2ccc(CNC(=O)OCc3ccc4c(Br)cc(Br)c(O)c4n3)cc2)c1=O             growth  48.4% (inactive)
4  CNCc1cccc2c1OCCOCCN(C)C(=O)CN(C)S(=O)(=O)c1ccc(cc1)-c1cnc(N)c(n1)C(=O)N2             growth  41.6% (inactive)

In the following, a different compound is considered.
Fill in the recorded growth for this compound, with UACC-257 melanoma as test system: Cn1ccnc1C(=O)/C=C/c1ccc(C(=O)Nc2ccc(F)cc2)cc1
62.2% (inactive)
